Recorded values, source patent US20180185450A1.

Target: human GLP-1 receptor (human, UniProt P43220 24-463)
Experiment: cell-based or functional assay
Numbered stars: 1 amine (or outer) side, 2 acyl side, 3 side chain; on linkers, the order of the positions; unused ones are H or OH. Square brackets hold non-standard residues; d marks the D form. Side chains are listed from the residue outwards. Ends that are not written are not given here. γGlu = O=C(O)[C@H](CCC(=O)[*:2])N[*:1]; X70 = not defined here; Aib = CC(C)(N)C(=O)O
Response field label: string, one of criterion met (EC50 hGLP-1R (cAMP) strictly below 7 pM) or criterion not met.

HXQGTFTSDLSKQKESQAAQDFIEWLKAGGPSSGAPPPS (dSer at 2; K(x53) at 14; C-terminal NH2) [SEQ ID NO: 42] :: criterion not met
HXQGTFTSDLSKQKESRRAQDFIEWLKNTGPSSGAPPPS (dSer at 2; K(γE-x53) at 14; C-terminal NH2) [SEQ ID NO: 96] :: criterion not met
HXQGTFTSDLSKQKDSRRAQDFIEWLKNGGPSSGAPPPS (dSer at 2; K(γE-x53) at 14; C-terminal NH[(CH2-CH2-O)24-CH2-CH2-COOH]) [SEQ ID NO: 105] :: criterion not met
H[Aib]QGTFTSDLSKQK([γGlu-X70])DEQRAKEFIEWLKAGGPSSGAPPPS-NH2 (reading uncertain) [SEQ ID NO: 152] :: criterion met
HXQGTFTSDLSKQXESRRAQDFIEWLKAGGPSSGAPPPS (dSer at 2; Dab(γE-x53) at 14; C-terminal NH2) [SEQ ID NO: 72] :: criterion not met

Prompt: Is it true that EC50 hGLP-1R (cAMP) reported for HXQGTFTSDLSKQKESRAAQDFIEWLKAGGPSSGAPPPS (dSer at 2; K(γE-x70) at 14; C-terminal NH2) [SEQ ID NO: 65] is less than 7 pM?
Completion: criterion met

Prompt: Does the reported EC50 hGLP-1R (cAMP) of the following binder sit strictly below 7 pM? HXQGTFTSDLSKQKDKRRAQLFIEWLKAXGPSSGAPPPS (Aib at 2; K(γE-x70) at 14; dAla at 29; C-terminal NH2) [SEQ ID NO: 210]
Completion: criterion met
